Assay: Oral bioavailability in rat at 0.3 mg/kg
Format: ADME, organism-based
Settings: in vivo
Measurement Label: bioavailability (%)

| Given Smiles | Endpoint Result |
| --- | --- |
| COCCOc1cc(CCOC)cc(CN(C(=O)[C@H]2CNCC[C@]2(O)c2ccc(F)c(F)c2)C2CC2)c1 | 17 |

* * *

Experiment: Drug uptake in FVB mouse expressing wild type MDR1a brain at 30 mg/kg, po after 24 hrs
Type: ADME, organism-based
Parameters: dose 30 mg/kg, route oral
Settings: read-out: Drug uptake
Measurement Label: concentration at 24 h (nM)

| Given Smiles | Measurement Label | Endpoint Result |
| --- | --- | --- |
| COCCCc1cc(CN(C(=O)[C@H]2CNCC[C@@H]2c2ccn(C)c(=O)c2)C2CC2)cc(Br)c1C | concentration at 24 h | 8 |

* * *

Assay: Cmax in rat plasma at 3 mg/kg, po
Assay type: ADME, organism-based
Parameters: dose 3 mg/kg, route oral

| Molecule | Unit String | Cmax |
| --- | --- | --- |
| COc1cc2c(cc1OC)CN(CCc1ccc(NC(=O)c3cccc4c(=O)c5cccc(OC)c5[nH]c34)cc1)CC2 [ELACRIDAR] | nM | 200 |

* * *

Test: Oral bioavailability in rat at 0.3 mg/kg pre-dosed with 50 mg/kg, po of Pgp and Bcrp inhibitor elacridar 15 mins before drug challenge
Format: ADME, organism-based
Settings: in vivo

| Given Smiles | bioavailability (%) |
| --- | --- |
| COCCOc1cc(CCOC)cc(CN(C(=O)[C@H]2CNCC[C@]2(O)c2ccc(F)c(F)c2)C2CC2)c1 | 14 |

* * *

Tested on: Mus musculus
Assay: Volume of distribution at steady state in MDR1a-deficient FVB mouse at 30 mg/kg, po and 5 mg/kg, iv
Type: ADME, organism-based
Conditions: in vivo

| Given Smiles | Vdss [L/kg] |
| --- | --- |
| COCCCc1cc(CN(C(=O)[C@H]2CNCC[C@@H]2c2ccn(C)c(=O)c2)C2CC2)cc(Br)c1C | 4.7 |

* * *

Assay: Drug uptake in MDR1a-deficient FVB mouse brain at 5 mg/kg, iv after 24 hrs
Assay type: ADME, organism-based
Set-up: dose 5 mg/kg, route intravenous
Conditions: read-out: Drug uptake
Measurement Label: concentration at 24 h (nM)

| Given Smiles | Endpoint Result |
| --- | --- |
| COCCCc1cc(CN(C(=O)[C@H]2CNCC[C@@H]2c2ccn(C)c(=O)c2)C2CC2)cc(Br)c1C | 239 |

* * *

Assay: Oral bioavailability in rat at 30 mg/kg
Type: ADME, organism-based
Conditions: in vivo

| Given Smiles | Unit String | bioavailability |
| --- | --- | --- |
| COCCCc1cc(CN(C(=O)[C@H]2CNCC[C@@H]2c2ccn(C)c(=O)c2)C2CC2)cc(Br)c1C | % | 17 |
| COCCCc1cc(CN(C(=O)[C@H]2CNCC[C@@H]2c2ccn(C)c(=O)c2)C2CC2)cc(OCCOC)c1.Cl | % | 3 |
| COCCCc1cc(Cl)c(Cl)c(CN(C(=O)[C@H]2CNCC[C@@H]2c2ccn(C)c(=O)c2)C2CC2)c1 | % | 24 |

* * *

Test system: rat Mdr1a
Test: Apparent permeability across pig LLC-PK1 cells transfected with rat Mdr1a
Assay type: ADME, cell-based, Sus scrofa

| Given Smiles | Reading Qualifier | Papp, ×10⁻⁶ cm/s |
| --- | --- | --- |
| COCCCc1cc(CN(C(=O)[C@H]2CNCC[C@@H]2c2ccn(C)c(=O)c2)C2CC2)cc(Br)c1C | = | 2 |
| COCCCc1cc(CN(C(=O)[C@H]2CNCC[C@@H]2c2ccn(C)c(=O)c2)C2CC2)cc(OCCOC)c1.Cl | < | 3 |
| COCCCc1cc(Cl)c(Cl)c(CN(C(=O)[C@H]2CNCC[C@@H]2c2ccn(C)c(=O)c2)C2CC2)c1 | = | 3 |
| COCCOc1cc(CCOC)cc(CN(C(=O)[C@H]2CNCC[C@]2(O)c2ccc(F)c(F)c2)C2CC2)c1 | = | 22 |

* * *

Assay: Oral bioavailability in rat at 3 mg/kg pre-dosed with 50 mg/kg, po of Pgp and Bcrp inhibitor elacridar 15 mins before drug challenge
Format: ADME, organism-based
Conditions: in vivo

| Given Smiles | bioavailability |
| --- | --- |
| COCCCc1cc(Cl)c(Cl)c(CN(C(=O)[C@H]2CNCC[C@@H]2c2ccn(C)c(=O)c2)C2CC2)c1 | 20% |
| COCCCc1cc(CN(C(=O)[C@H]2CNCC[C@@H]2c2ccn(C)c(=O)c2)C2CC2)cc(Br)c1C | 31% |
| COCCOc1cc(CCOC)cc(CN(C(=O)[C@H]2CNCC[C@]2(O)c2ccc(F)c(F)c2)C2CC2)c1 | 24% |

* * *

Test: Lipophilicity, Log D of the compound at pH 7 by RP-HPLC analysis
Type: physicochemical
Conditions: buffer

| Given Smiles | logD |
| --- | --- |
| COCCCc1cc(CN(C(=O)[C@H]2CNCC[C@@H]2c2ccn(C)c(=O)c2)C2CC2)cc(OCCOC)c1.Cl | 0.9 |
| COCCc1ccc(Cl)c(CN(C(=O)[C@H]2CNCC[C@]2(O)c2ccc(F)c(F)c2)C2CC2)c1 | 3.1 |
| COCCc1ccc(Cl)c(CN(C(=O)[C@H]2CNCC[C@@H]2c2ccn(C)c(=O)c2)C2CC2)c1 | 1 |
| COCCOc1cc(CCOC)cc(CN(C(=O)[C@H]2CNCC[C@]2(O)c2ccc(F)c(F)c2)C2CC2)c1 | 2.6 |

* * *

Experiment: Oral bioavailability in rat at 3 mg/kg
Assay type: ADME, organism-based
Settings: in vivo
Measurement Label: bioavailability (%)

| Given Smiles | Unit String | Endpoint Result |
| --- | --- | --- |
| COCCc1ccc(Cl)c(CN(C(=O)[C@H]2CNCC[C@@H]2c2ccn(C)c(=O)c2)C2CC2)c1 | % | 1 |
| COCCCc1cc(CN(C(=O)[C@H]2CNCC[C@@H]2c2ccn(C)c(=O)c2)C2CC2)cc(OCCOC)c1.Cl | % | 0.5 |
| COCCc1ccc(Cl)c(CN(C(=O)[C@H]2CNCC[C@]2(O)c2ccc(F)c(F)c2)C2CC2)c1 | % | 16 |
| COCCCc1cc(Cl)c(Cl)c(CN(C(=O)[C@H]2CNCC[C@@H]2c2ccn(C)c(=O)c2)C2CC2)c1 | % | 2 |
| COCCOc1cc(CCOC)cc(CN(C(=O)[C@H]2CNCC[C@]2(O)c2ccc(F)c(F)c2)C2CC2)c1 | % | 29 |
| COCCCc1cc(CN(C(=O)[C@H]2CNCC[C@@H]2c2ccn(C)c(=O)c2)C2CC2)cc(Br)c1C | % | 6 |

* * *

Test: Drug recovery in permanently bile-duct cannulated rat feces supplimented with artificial bile at 5 mg/kg, iv after 48 hrs by HPLC-MS/MS analysis
Assay type: ADME, organism-based
Set-up: dose 5 mg/kg, route intravenous
Settings: faeces, read-out: Drug uptake

| Given Smiles | dose excreted at 48 h [%] |
| --- | --- |
| COCCCc1cc(CN(C(=O)[C@H]2CNCC[C@@H]2c2ccn(C)c(=O)c2)C2CC2)cc(OCCOC)c1.Cl | 10 |

* * *

Assay: Drug uptake in FVB mouse expressing wild type MDR1a brain at 5 mg/kg, iv after 24 hrs
Type: ADME, organism-based
Set-up: dose 5 mg/kg, route intravenous
Conditions: read-out: Drug uptake

| Given Smiles | concentration at 24 h |
| --- | --- |
| COCCCc1cc(CN(C(=O)[C@H]2CNCC[C@@H]2c2ccn(C)c(=O)c2)C2CC2)cc(Br)c1C | 7.3 nM |

* * *

Assay: Oral bioavailability in rat at 30 mg/kg
Format: ADME, organism-based
Settings: in vivo
Measurement Label: bioavailability (%)

| Given Smiles | Measurement Label | Endpoint Result |
| --- | --- | --- |
| COCCCc1cc(CN(C(=O)[C@H]2CNCC[C@@H]2c2ccn(C)c(=O)c2)C2CC2)cc(OCCOC)c1.Cl | bioavailability | 3 |
| COCCCc1cc(CN(C(=O)[C@H]2CNCC[C@@H]2c2ccc(OCCOc3c(Cl)cc(C)cc3Cl)cc2)C2CC2)cc(OCCOC)c1.Cl | bioavailability | 27 |

* * *

Experiment: Drug recovery in permanently bile-duct cannulated rat bile supplimented with artificial bile at 20 mg/kg, po after 48 hrs by HPLC-MS/MS analysis
Format: ADME, organism-based
Design: dose 20 mg/kg, route oral
Details: read-out: Drug uptake

| Given Smiles | Unit String | dose excreted at 48 h |
| --- | --- | --- |
| COCCCc1cc(CN(C(=O)[C@H]2CNCC[C@@H]2c2ccn(C)c(=O)c2)C2CC2)cc(OCCOC)c1.Cl | % | 0.1 |
